Hello, the source for this data is ChEMBL document CHEMBL4196131, in case you need it.

Measured log10(IC50) accompanies every entry in the list below.
- tested-target: Estrogen receptor (Homo sapiens, UniProt P03372)
- Sequence (P03372 whole entry): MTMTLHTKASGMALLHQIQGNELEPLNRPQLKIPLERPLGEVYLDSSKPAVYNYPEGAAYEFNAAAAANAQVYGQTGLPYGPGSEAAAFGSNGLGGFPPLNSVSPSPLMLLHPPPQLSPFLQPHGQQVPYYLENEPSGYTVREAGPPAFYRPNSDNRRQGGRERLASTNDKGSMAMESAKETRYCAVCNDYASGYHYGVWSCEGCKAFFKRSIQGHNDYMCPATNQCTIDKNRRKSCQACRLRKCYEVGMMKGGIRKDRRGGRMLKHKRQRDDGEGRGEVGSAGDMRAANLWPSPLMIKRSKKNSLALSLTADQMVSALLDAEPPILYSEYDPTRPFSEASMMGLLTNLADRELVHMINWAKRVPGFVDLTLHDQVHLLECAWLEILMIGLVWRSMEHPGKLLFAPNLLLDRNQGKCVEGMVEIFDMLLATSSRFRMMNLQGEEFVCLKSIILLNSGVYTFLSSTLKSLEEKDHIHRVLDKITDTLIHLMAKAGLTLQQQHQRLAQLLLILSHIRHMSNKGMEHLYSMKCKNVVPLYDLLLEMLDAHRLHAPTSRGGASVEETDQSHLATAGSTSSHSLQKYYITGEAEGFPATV
- assay-protocol: Antagonist activity at human ERalpha expressed in HEK293T cells after 24 hrs by ERE-based dual luciferase reporter gene assay
A difference of one corresponds to tenfold IC50; all values are log10 with IC50 in nM.

Consider the reported log10(IC50) for these compounds:
O=S(=O)(Oc1ccc(Br)cc1)C1CC2OC1C(c1ccc(/C=C/c3cc(O)cc(O)c3)cc1)=C2c1ccc(O)cc1 (configuration not stated)	1.79
Cc1cccc(OS(=O)(=O)C2CC3OC2C(c2ccc(/C=C/c4cc(O)cc(O)c4)cc2)=C3c2ccc(O)cc2)c1 (configuration not stated)	2.98

q: Form field - read-out: log10(IC50); system: Estrogen receptor (Homo sapiens, UniProt P03372); submitted item: O=S(=O)(Oc1cccc(Cl)c1)C1CC2OC1C(c1ccc(/C=C/c3cc(O)cc(O)c3)cc1)=C2c1ccc(O)cc1 (configuration not stated)
a: 2.97

q: Thanks! And Cc1ccc(OS(=O)(=O)C2CC3OC2C(c2ccc(/C=C/c4cc(O)cc(O)c4)cc2)=C3c2ccc(O)cc2)cc1 (configuration not stated) ?
a: 0.30

q: Cool, now COc1cc(/C=C/c2ccc(C3=C(c4ccc(O)cc4)C4CC(S(=O)(=O)Oc5ccc(Br)cc5)C3O4)cc2)cc(OC)c1 (configuration not stated)
a: 3.97

q: Entry CCc1ccccc1OS(=O)(=O)C1CC2OC1C(c1ccc(/C=C/c3cc(OC)cc(OC)c3)cc1)=C2c1ccc(O)cc1 (configuration not stated) please
a: 0.48

q: Note, next up: COc1cc(/C=C/c2ccc(OS(=O)(=O)C3CC4OC3C(c3ccc(O)cc3)=C4c3ccc(O)cc3)cc2)cc(OC)c1 (configuration not stated)
a: 0.85

====

- tested-target: Estrogen receptor (Homo sapiens)
- Sequence (whole entry): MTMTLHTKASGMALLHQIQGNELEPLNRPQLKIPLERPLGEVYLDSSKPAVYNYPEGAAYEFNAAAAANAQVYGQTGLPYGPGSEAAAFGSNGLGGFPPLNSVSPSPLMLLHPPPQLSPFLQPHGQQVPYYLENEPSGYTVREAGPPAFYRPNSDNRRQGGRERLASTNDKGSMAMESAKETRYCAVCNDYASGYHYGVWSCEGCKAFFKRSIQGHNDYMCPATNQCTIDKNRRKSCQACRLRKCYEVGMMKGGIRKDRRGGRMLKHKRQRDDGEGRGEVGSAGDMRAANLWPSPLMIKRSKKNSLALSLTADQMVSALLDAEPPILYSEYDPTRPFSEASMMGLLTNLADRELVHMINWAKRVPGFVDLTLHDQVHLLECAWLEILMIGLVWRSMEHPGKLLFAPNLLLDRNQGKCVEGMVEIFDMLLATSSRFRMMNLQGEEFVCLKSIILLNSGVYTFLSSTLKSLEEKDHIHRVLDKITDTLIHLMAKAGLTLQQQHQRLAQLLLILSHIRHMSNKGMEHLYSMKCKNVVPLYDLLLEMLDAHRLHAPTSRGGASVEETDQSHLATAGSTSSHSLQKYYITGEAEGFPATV
- assay-protocol: Antagonist activity at human ERalpha expressed in HEK293T cells after 24 hrs by ERE-based dual luciferase reporter gene assay relative to E2
- Type: cell-based
Each entry below lists one item and its recorded Efficacy value.
Expressed in %, but write only the number.

Sample answers from the record:
O=S(=O)(Oc1cccc(/C=C/c2cc(O)cc(O)c2)c1)C1CC2OC1C(c1ccc(O)cc1)=C2c1ccc(O)cc1 (stereo not given)	29
O=S(=O)(Oc1ccc(/C=C/c2ccccc2)cc1)C1CC2OC1C(c1ccc(O)cc1)=C2c1ccc(O)cc1 (stereo not given)	54

q: Given the entry O=S(=O)(Oc1ccc(/C=C/c2cc(O)cc(O)c2)cc1)C1CC2OC1C(c1ccc(O)cc1)=C2c1ccc(O)cc1 (stereo not given) , report its measured Efficacy.
a: 7

q: Follow-up entry: COc1cc(/C=C/c2ccc(OS(=O)(=O)C3CC4OC3C(c3ccc(O)cc3)=C4c3ccc(O)cc3)cc2)cc(OC)c1 (stereo not given)
a: 48
